Reported perc_inhibition_mean values for a set of compounds
biological target: SARS-CoV-2 nsp3-mac1 (Severe acute respiratory syndrome coronavirus 2); test: biochemical; assay type: biochemical; details: SARS-CoV-2 nsp3 macrodomain TR-FRET single point, concentration 50.0 uM
Lab book: enter the figure in %, no units written.

Example compounds with recorded perc_inhibition_mean:
Q: State the recorded perc_inhibition_mean for this entry: O=C(Nc1cnn(C2CCNCC2)c1)c1ncnc2[nH]ccc12
Ans: -1.896

Q: Entry Cc1nc2cnccn2c1NC(=O)c1cc(-c2ccco2)[nH]n1 has what perc_inhibition_mean?
Ans: -3.884

Q: Entry under review: Cc1ccc(-c2n[nH]cc2CNc2cnc3[nH]ncc3c2)o1 . Reported perc_inhibition_mean?
Ans: 7.232

Q: Reported perc_inhibition_mean for C[C@@H](CO)Nc1ncnc2[nH]c(C(=O)OC(C)(C)C)cc12 : what is it?
Ans: 10.712

Q: Endpoint output: perc_inhibition_mean of c1cc(-c2nnc(Sc3ncnc4[nH]ccc34)[nH]2)ccn1 . Value?
Ans: 5.47

Further cases:
Q: Look at this compound and give its reported perc_inhibition_mean. O=S1(=O)CCC[C@@H](CNc2ncnc3n[nH]cc23)C1
Ans: 4.593

* * *

test: in vitro; settings: human, HeLa-ACE2 cells (uninfected)
outcome measure: CC50 at 24 h

Q: Param item = CC(C)C(Nc1ncnc2[nH]c(C(=O)NC3CCN(C)C3)cc12)c1ccc2c(c1)S(=O)(=O)CCC2 (centres unmarked) ; retrieve measured CC50 at 24 h.
Ans: > 20 µM

Others:
Q: // CC50 at 24 h lookup, key: Cc1nn(C)cc1-c1cc2c(NC(c3ccc4c(c3)S(=O)(=O)CCC4)C(C)C)ncnc2[nH]1 (centres unmarked)
Ans: > 20 µM

* * *

experiment: In vitro kinetic solubility; conditions: In vitro kinetic solubility, ph 7.4
Entries and their solubility_mean
The reply should contain only the number, in µM.

Worked examples follow.
Q: What solubility_mean value was documented for this compound, CC(C)[C@H](Nc1ncnc2[nH]cc(C(=O)NC3CC3)c12)c1ccc2c(c1)S(=O)(=O)CCC2 (single isomer, unassigned) [ASAP-0011247] ?
Ans: 19

Q: # solubility_mean lookup, item CNCc1cc(-c2cc3c(N[C@@H](c4ccc5c(c4)S(=O)(=O)NCC5)C(C)C)ncnc3[nH]2)co1 [ASAP-0011243]
Ans: 372

Q: Fill in the blank: the reported solubility_mean of CC(C)[C@@H](Nc1ncnc2[nH]c(-c3cnn(C)c3C#N)cc12)c1ccc2c(n1)OCCO2 [ASAP-0010716] is ____.
Ans: 50

Q: So what does the record say about solubility_mean for CC(C)[C@H](Nc1ncnc2[nH]c(-c3cnn(CC(=O)N(C)C)c3)cc12)c1ccc2c(c1)S(=O)(=O)CCC2 [ASAP-0013744] ?
Ans: 361

Q: What value of solubility_mean has been recorded for this entry: COCCNC(=O)c1c[nH]c2ncnc(N[C@H](c3ccc4c(c3)S(=O)(=O)CCC4)C(C)C)c12 (racemic) [ASAP-0008650]
Ans: 378

Continuing:
Q: Would you mind telling me what solubility_mean value was observed for CC(C)(C)[C@H](Nc1ncnc2[nH]c(-c3cnn(CC(N)=O)c3)cc12)c1ccc2c(c1)OCCO2 (racemic) [ASAP-0008581] ?
Ans: 195

Q: Find the recorded solubility_mean belonging to CC(C)[C@@H](Nc1ncnc2[nH]c(-c3cnn(CC(N)=O)c3)cc12)c1ccc2c(c1)OCCO2 [ASAP-0008288] and report it.
Ans: 345
